From: patent EP4725490A1

# PROTOCOL TEXT: Solubility of compound A in various solvents (standard solubility determination)
# Type: physicochemical
# PARTICULARS: organic solvent or mixture; Methanol: dichloromethane (1:3); 25 °C

{"COMPOUND": "CC(C)N1Cc2cc(C(F)(F)F)ncc2-c2cnc(NCc3c(F)ccc4c3CCO4)n3cnc(c23)C1=O [compound A]", "solubility": "83 mg/mL"}

* * *

# PROTOCOL TEXT: Solubility of compound A in various solvents (standard solubility determination)
# Type: physicochemical
# PARTICULARS: organic solvent or mixture; Tetrahydrofuran; 25 °C

{"MOLECULE": "CC(C)N1Cc2cc(C(F)(F)F)ncc2-c2cnc(NCc3c(F)ccc4c3CCO4)n3cnc(c23)C1=O [compound A]", "solubility (µg/mL)": 2000}
